Listed next: entries and their corresponding Fold increase over vehicle.
molecular target: TLR8 (Homo sapiens); assay: Dose dependent TLR8-mediated NF-κB-luciferase response in HEK293 cells transfected with TLR8 (Example 5); type: cell-based; design: expressed in transfected cells; host or cells: HEK293 (ATCC CRL-1573), pIRES vector, G-418 selected, co-transfected with NFkB-luc reporter; settings: 0.3 μM
Write it as a number; the unit fold goes unstated.

These recorded examples may help you get a feel for the data.
[
  {
    "compound": "CCOCc1nc2c(N)nc3ccccc3c2n1CC(C)(C)NC(=O)NC(C)C [IRM47]",
    "assay metric": "Fold increase over vehicle",
    "units text": "fold",
    "recorded number": 0.8
  },
  {
    "compound": "CCOCc1nc2c(N)nc3cc(-c4ccc(C(=O)N(C)OC)cc4)ccc3c2n1CC(C)(C)O [IRM61]",
    "assay metric": "Fold increase over vehicle",
    "units text": "fold",
    "recorded number": 1.1
  },
  {
    "compound": "CCc1nc2c(N)nc3ccccc3c2n1CCS(C)(=O)=O [IRM44]",
    "assay metric": "Fold increase over vehicle",
    "units text": "fold",
    "recorded number": 1.1
  },
  {
    "compound": "CCOCc1nc2c(N)nc3cc(-c4ccc(CO)cc4)ccc3c2n1CC1COC(C)(C)O1 (centres unmarked) [IRM53]",
    "assay metric": "Fold increase over vehicle",
    "units text": "fold",
    "recorded number": 1.0
  },
  {
    "compound": "CCOCc1nc2c(N)nc3cc(-c4cccnc4)ccc3c2n1CC(O)CO (centres unmarked) [IRM57]",
    "assay metric": "Fold increase over vehicle",
    "units text": "fold",
    "recorded number": 1.7
  },
  {
    "compound": "CCOCc1nc2c(N)nc3cc(-c4cccnc4)ccc3c2n1CC(C)(C)O [IRM51]",
    "assay metric": "Fold increase over vehicle",
    "units text": "fold",
    "recorded number": 3.8
  }
]

Q: Answer with the recorded Fold increase over vehicle of CCCCc1nc2c(N)nc3ccccc3c2n1CCCNC(=O)N1CCOCC1 [IRM39] only.
Result: 1.1

Q: Identify Fold increase over vehicle associated with the compound COCCc1nc2c(N)nc3ccccc3c2n1CCCCNC(=O)c1cnc2ccccc2n1 [IRM38]
Result: 0.8

Q: Output Fold increase over vehicle of CCc1nc2c(N)nc3cc(-c4ccncc4)ccc3c2n1CC(C)(C)O [IRM59]
Result: 1.3

Q: Indicate the recorded Fold increase over vehicle value for this compound: CCCCc1nc2c(N)nc3ccccc3c2n1CCS(C)(=O)=O [IRM45]
Result: 2.5

Q: Indicate its recorded Fold increase over vehicle; the compound in question is COCCc1nc2c(N)nc3c(c2n1CCOCCNC(=O)Nc1ccccc1)CCCC3 [IRM41]
Result: 0.9

* * *

target: TLR8 (Homo sapiens, UniProt Q9NR97); assay: Dose dependent TLR8-mediated NF-κB-luciferase response in HEK293 cells transfected with TLR8 (Example 5); assay type: cell-based; parameters: expressed in transfected cells; host or cells: HEK293 (ATCC CRL-1573), pIRES vector, G-418 selected, co-transfected with NFkB-luc reporter; conditions: 3.0 μM
Sequence (Q9NR97 27-1041): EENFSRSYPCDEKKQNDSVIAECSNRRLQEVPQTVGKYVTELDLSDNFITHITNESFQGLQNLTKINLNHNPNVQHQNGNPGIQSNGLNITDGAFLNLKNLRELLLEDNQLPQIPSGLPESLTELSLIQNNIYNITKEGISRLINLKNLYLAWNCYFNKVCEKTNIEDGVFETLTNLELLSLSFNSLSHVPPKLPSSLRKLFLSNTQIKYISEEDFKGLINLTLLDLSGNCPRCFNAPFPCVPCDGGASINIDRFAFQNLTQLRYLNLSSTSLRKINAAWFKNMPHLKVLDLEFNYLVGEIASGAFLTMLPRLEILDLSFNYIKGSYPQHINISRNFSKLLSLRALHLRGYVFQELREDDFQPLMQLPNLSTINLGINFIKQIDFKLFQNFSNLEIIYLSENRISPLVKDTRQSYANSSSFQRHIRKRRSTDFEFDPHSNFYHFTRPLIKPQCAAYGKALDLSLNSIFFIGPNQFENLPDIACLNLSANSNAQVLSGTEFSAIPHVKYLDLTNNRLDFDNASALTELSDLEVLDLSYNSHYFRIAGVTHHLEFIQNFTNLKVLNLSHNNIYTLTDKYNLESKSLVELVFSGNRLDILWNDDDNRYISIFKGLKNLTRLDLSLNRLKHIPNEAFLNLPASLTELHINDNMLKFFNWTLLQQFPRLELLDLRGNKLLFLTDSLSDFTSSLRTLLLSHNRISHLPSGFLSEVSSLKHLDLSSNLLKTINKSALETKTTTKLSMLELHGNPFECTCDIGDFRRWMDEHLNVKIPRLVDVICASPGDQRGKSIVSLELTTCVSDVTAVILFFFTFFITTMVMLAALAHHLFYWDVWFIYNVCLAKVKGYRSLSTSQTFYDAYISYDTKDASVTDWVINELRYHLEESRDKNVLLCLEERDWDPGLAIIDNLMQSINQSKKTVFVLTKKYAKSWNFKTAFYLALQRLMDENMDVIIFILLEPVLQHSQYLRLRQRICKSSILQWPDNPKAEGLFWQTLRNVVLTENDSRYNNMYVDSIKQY
The label is MET for Fold increase over vehicle below 4 fold and NOT MET for Fold increase over vehicle equal to or exceeding 4 fold.

[
  {
    "molecule": "CCCCc1nc2c(N)nc3ccccc3c2n1CCS(=O)(=O)CC [IRM42]",
    "assigned class": "MET"
  }
]

Q: Record CCCNC(=O)NC(C)(C)Cn1c(COCC)nc2c(N)nc3ccccc3c21 [IRM55] : is its Fold increase over vehicle strictly below 4 fold?
Result: MET

Q: Given CCOCc1nc2c(N)nc3cc(-c4cccnc4)ccc3c2n1CC(C)(C)O [IRM51] , is recorded Fold increase over vehicle strictly lower than 4 fold?
Result: NOT MET

Q: Is 4 fold strictly greater than the molecule's reported Fold increase over vehicle? molecule: CCOCc1nc2c(N)nc3cc(-c4ccccc4)ccc3c2n1CC1CCNCC1 [IRM48]
Result: MET

Q: # strict comparison: is reported Fold increase over vehicle < 4 fold? input = CCc1nc2c(N)nc3cc(-c4ccncc4)ccc3c2n1CC(C)(C)O [IRM59]
Result: NOT MET

Q: Lab note: Fold increase over vehicle threshold 4 fold. Does this molecule come in strictly under it? CCCCc1nc2c(N)nc3ccccc3c2n1CCS(C)(=O)=O [IRM45]
Result: NOT MET

Q: A record lists CCOCc1nc2c(N)nc3cc(-c4cncc(CO)c4)ccc3c2n1CC(C)(C)O [IRM52] . Is its Fold increase over vehicle below 4 fold?
Result: NOT MET

Q: In the record for CCCCc1nc2c(N)nc3ccccc3c2n1CCCS(C)(=O)=O [IRM40] , is Fold increase over vehicle less than 4 fold?
Result: MET

Taken from patent US7375180B2.
